# PROTOCOL DESCRIPTION: chemical genetic growth profiling, strain panel (AID 1159580);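 further: tested at 20 µM; growth read once vehicle control cultures reached saturation at 30 °C; 1 = growth at the plate median or of vehicle wells; lower values mean less growth of the strain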
# ASSAY CONTEXT: S. cerevisiae deletion strains, growth OD, locus YCL011C, strain gbp2
Among all 5,500 compounds or so, about 2,000 (36%) were called active. Inconclusive results (about 18%) are left out. No stated cut-off is given here; in the data, active means normalized growth mostly below about 0.91 (no sharp cut-off); inconclusive means no clear call, values can overlap the other calls; inactive means mostly above about 0.92. Some of the results follow.
Outcome codes: 1.0 = active, 0.0 = inactive

1) CNCCCC12CCC(c3ccccc31)c1ccccc12	0.0
2) CN(C)CCCN1c2ccccc2Sc2ccc(Cl)cc21	1.0
3) NCC(N)C(=O)c1ccccc1 (stereo unspecified)	0.0
4) CC(C)c1ccc2c(c1)CCC1C(C)(C(N)=O)CCCC21C (stereo unspecified)	0.0
5) CC(C)CCCC(C)[C@H]1CCC2C3CC=C4CC(=O)CC[C@]4(C)C3CC[C@@]21C (stereo partly specified)	0.0
6) NS(=O)(=O)c1cc2c(cc1Cl)NC(CSCc1ccccc1)=NS2(=O)=O	0.0
7) CN(C)CCCN1c2ccccc2Sc2ccc(C(F)(F)F)cc21	0.0
8) O=C(OOC(=O)c1ccccc1)c1ccccc1	0.0
9) CN(C)CCCN1c2ccccc2CCc2ccccc21	0.0
10) C/C=C\C1=C(C(=O)O)N2C(=O)C(NC(=O)C(N)c3ccc(O)cc3)C2SC1 (stereo unspecified)	0.0
11) CN(C)CCCN1c2ccccc2Sc2ccccc21	0.0
12) CC(C)c1ccc2c(c1)CCC1[C@](C)(CN)CCC[C@]21C (stereo partly specified)	0.0
13) COc1cc(C/C=C/c2ccccc2)c(OC)cc1O	0.0
14) CC(C)CCCC(C)C1CCC2C3C[C@@H](O)[C@@]4(O)C[C@@H](O)CC[C@]4(C)C3CC[C@]12C (stereo partly specified)	0.0
15) CS(=O)(=O)Nc1ccc([N+](=O)[O-])cc1Oc1ccccc1	0.0
16) CC(C)CCCC(C)C1CCC2C3CC(=O)[C@H]4C[C@@H](O)CC[C@]4(C)C3CC[C@]12C (stereo partly specified)	0.0
17) CC(=O)O[C@H]1CCC2(C)C3=C(CCC2C1(C)C)[C@@]1(C)CC[C@@H](C(C)CCC=C(C)C)[C@]1(C)CC3 (stereo partly specified)	0.0
18) NCC(=O)c1ccccc1	0.0
19) NC(=O)NC(=O)Cc1ccccc1	0.0
20) O=C(O)c1cc(O)c2c(c1)[C@@H]([C@H]1c3cc(C(=O)O)cc(O)c3C(=O)c3c(O[C@H]4O[C@H](CO)[C@@H](O)[C@H](O)[C@H]4O)cccc31)c1cccc(O[C@H]3O[C@H](CO)[C@@H](O)[C@H](O)[C@H]3O)c1C2=O	0.0
21) CC(C)CCCC(C)C1CCC2C3=CC[C@H]4C[C@@H](O)CC[C@]4(C)C3CC[C@@]21C (stereo partly specified)	0.0

---

# PROTOCOL DESCRIPTION: chemical genetic growth profiling, strain panel (AID 1159580);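 further: tested at 20 µM; growth read once vehicle control cultures reached saturation at 30 °C; 1 = growth at the plate median or of vehicle wells; lower values mean less growth of the strain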
# ASSAY CONTEXT: S. cerevisiae deletion strains, growth OD, locus YKL085W, strain MDH1 (second series)
Out of some 5,500 compounds screened, about 2,000 (36%) were called active. Inconclusive results (about 18%) are left out. No stated cut-off is given here; in the data, active means normalized growth mostly below about 0.91 (no sharp cut-off); inconclusive means no clear call, values can overlap the other calls; inactive means mostly above about 0.92. The list shows a part of the results.
Outcome codes: True = active, False = inactive

1) COC(=O)c1c(OC)cc2c(c1C)Oc1c(Cl)c(OC(C)=O)c(Cl)c(C)c1C(=O)O2	False
2) O=P1(N(CCCl)CCCl)NCCCO1 (centres undefined)	True
3) CC(=O)OC1CCC2(C)C(CC(OC(C)=O)C3(C)C4=CC(=O)OC(c5ccoc5)C4(C)CCC23)C1(C)C (centres undefined)	False
4) CC(=O)O[C@@H]1CC[C@@]2(C)C(C[C@@H](OC(C)=O)[C@@]3(C)C4=CC(=O)O[C@@H](c5ccoc5)[C@]4(C)CCC23)C1(C)C (some centres undefined)	False
5) CC(=O)O[C@@H]1CC2C(C)(C)C(=O)C=C[C@]2(C)C2CC[C@]3(C)C(=CC(=O)O[C@H]3c3ccoc3)[C@@]21C (some centres undefined)	False
6) CC(=O)Oc1c(Cl)c(C)c2c(c1Cl)OC(=O)c1c(C)c(Cl)c(OC(C)=O)c(Cl)c1O2	True
7) COC(=O)c1c(OC)cc2c(c1C)Oc1c(Cl)c(O)c(Cl)c(C)c1C(=O)O2	False
8) COC(=O)c1c(C)c2c(c(C)c1OC)OC(=O)c1c(C)c(Cl)c(OC)c(Cl)c1O2	True
9) CC(=O)O[C@@H]1C=C[C@@]2(C)C(C[C@@H](OC(C)=O)[C@@]3(C)C4=CC(=O)O[C@@H](c5ccoc5)[C@]4(C)CCC23)C1(C)C (some centres undefined)	True
